Entries and their measured ECL signal follow.
- STUDY TARGET: T1, rHuman HGF R/c-MET/Fc Chimera, CF (R&D Systems Cat#358-MT/CF) (human, UniProt P08581 25-932)
- T1 construct: Bought protein; also called HGF R/Fc; hepatocyte growth factor receptor; Fc part of the bought chimera not given
- T1 sequence (P08581 25-932, change not shown): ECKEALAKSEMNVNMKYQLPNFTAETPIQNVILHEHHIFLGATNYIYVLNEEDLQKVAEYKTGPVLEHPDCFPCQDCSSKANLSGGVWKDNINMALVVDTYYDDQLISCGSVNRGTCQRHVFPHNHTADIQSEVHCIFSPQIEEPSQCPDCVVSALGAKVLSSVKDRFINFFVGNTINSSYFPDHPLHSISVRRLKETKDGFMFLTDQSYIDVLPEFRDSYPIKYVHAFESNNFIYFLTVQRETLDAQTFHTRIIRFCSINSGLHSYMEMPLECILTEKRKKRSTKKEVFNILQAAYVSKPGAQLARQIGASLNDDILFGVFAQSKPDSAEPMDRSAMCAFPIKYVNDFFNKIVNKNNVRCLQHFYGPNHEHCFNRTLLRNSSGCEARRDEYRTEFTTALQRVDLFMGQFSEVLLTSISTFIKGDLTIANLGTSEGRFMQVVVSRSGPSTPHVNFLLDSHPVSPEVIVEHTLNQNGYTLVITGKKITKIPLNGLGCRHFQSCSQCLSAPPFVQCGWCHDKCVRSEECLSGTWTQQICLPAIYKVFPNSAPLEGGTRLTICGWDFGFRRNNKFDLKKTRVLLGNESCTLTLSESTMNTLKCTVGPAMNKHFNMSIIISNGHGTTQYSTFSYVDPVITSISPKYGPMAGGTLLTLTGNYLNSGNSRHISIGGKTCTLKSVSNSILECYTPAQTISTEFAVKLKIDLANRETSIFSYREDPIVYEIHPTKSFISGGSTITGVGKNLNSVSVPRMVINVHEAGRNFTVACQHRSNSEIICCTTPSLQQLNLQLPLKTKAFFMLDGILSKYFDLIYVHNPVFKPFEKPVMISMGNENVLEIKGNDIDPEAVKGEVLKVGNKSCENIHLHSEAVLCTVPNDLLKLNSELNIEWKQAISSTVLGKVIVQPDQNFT
- TEST DETAILS: ECL multispot (MSD) assay; antigen spotted on plate, Fab in solution;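 note: purified Fab incubated 1 hour at 20 °C in 1% BSA TBST on antigen-coated wells, detected with TAG antibody, ECL read on Sector Imager 2400, compared to each well's blank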
Give just the numeric value; ECL signal need not be written.

{"BINDER": "Fab VH1-46_IGHD6-6*01_IGHJ1*01 S102A/S103P/S104F (APF) & L6_IGKJ1*01 S30W (Fab, V domains shown, Tested as Fab made in E. coli; The heavy chain vector (Plasmid A) adds CH1 with His and Flag tags, the kappa vector (Plasmid C) adds CL kappa; also called APF / S30W) VH: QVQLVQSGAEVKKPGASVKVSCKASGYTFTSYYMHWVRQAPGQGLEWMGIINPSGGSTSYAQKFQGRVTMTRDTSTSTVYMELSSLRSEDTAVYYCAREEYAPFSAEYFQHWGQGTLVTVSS VL: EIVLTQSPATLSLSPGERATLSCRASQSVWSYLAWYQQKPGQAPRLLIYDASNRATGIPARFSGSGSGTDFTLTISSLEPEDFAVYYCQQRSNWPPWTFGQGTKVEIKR", "METRIC NAME": "ECL signal", "NUMERIC READOUT": 62}
{"BINDER": "Fab VH1-46_IGHD6-6*01_IGHJ1*01 S102A/S103P/S104F (APF) & L6_IGKJ1*01 S30R (Fab, V domains shown, Tested as Fab made in E. coli; The heavy chain vector (Plasmid A) adds CH1 with His and Flag tags, the kappa vector (Plasmid C) adds CL kappa; also called APF / S30R) VH: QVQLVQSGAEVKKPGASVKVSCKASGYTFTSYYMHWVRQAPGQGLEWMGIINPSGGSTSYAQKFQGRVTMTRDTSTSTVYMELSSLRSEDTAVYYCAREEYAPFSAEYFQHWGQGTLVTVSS VL: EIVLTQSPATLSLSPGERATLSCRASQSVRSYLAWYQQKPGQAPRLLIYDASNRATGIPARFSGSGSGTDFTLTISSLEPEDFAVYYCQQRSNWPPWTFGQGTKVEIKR", "METRIC NAME": "ECL signal", "NUMERIC READOUT": 108}
{"BINDER": "Fab VH1-46_IGHD6-6*01_IGHJ1*01 S102A/S103P/S104F (APF) & L6_IGKJ1*01 S30L (Fab, V domains shown, Tested as Fab made in E. coli; The heavy chain vector (Plasmid A) adds CH1 with His and Flag tags, the kappa vector (Plasmid C) adds CL kappa; also called APF / S30L) VH: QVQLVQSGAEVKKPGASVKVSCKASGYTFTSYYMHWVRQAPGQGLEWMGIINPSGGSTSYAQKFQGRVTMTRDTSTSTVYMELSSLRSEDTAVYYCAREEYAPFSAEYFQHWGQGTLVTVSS VL: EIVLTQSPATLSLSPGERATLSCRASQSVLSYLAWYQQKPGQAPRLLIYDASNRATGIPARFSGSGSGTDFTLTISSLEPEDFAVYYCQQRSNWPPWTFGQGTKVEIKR", "METRIC NAME": "ECL signal", "NUMERIC READOUT": 250}

Returns the measured ECL signal for the input binder. Input: Fab VH1-46_IGHD6-6*01_IGHJ1*01 S102A/S103P/S104F (APF) & L6_IGKJ1*01 S30T (Fab, V domains shown, Tested as Fab made in E. coli; The heavy chain vector (Plasmid A) adds CH1 with His and Flag tags, the kappa vector (Plasmid C) adds CL kappa; also called APF / S30T) VH: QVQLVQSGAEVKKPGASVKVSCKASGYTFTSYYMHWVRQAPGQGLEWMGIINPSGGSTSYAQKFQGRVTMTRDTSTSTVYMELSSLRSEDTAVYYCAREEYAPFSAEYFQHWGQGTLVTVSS VL: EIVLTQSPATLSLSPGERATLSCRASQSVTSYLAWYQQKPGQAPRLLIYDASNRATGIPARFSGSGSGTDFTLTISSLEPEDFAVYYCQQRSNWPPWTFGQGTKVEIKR 297

Origin of values: patent US20120316071A1
